System: NCI-H2342
Test: relative viability (nuclei count vs DMSO), 5 days (fraction); higher = more cells survive
Conditions: first compound 2.53 µM
Criterion: relative viability strictly under 0.7. Met: Condition met. Not met: Condition not met.

These recorded examples may help you get a feel for the data.
Nc1cccc2c1CN(C1CCC(=O)NC1=O)C2=O (configuration not stated) [Lenalidomide] + CCNC(=O)c1noc(-c2cc(C(C)C)c(O)cc2O)c1-c1ccc(CN2CCOCC2)cc1 [Luminespib] (partner 0.01 µM) :: Condition not met
Nc1cccc2c1CN(C1CCC(=O)NC1=O)C2=O (configuration not stated) [Lenalidomide] + Cc1cc(Nc2cc(N3CCN(C)CC3)nc(Sc3ccc(NC(=O)C4CC4)cc3)n2)n[nH]1 [Tozasertib] (partner 0.1 µM) :: Condition met
Nc1cccc2c1CN(C1CCC(=O)NC1=O)C2=O (configuration not stated) [Lenalidomide] + O=C(c1cc(Cc2n[nH]c(=O)c3ccccc23)ccc1F)N1CCN(C(=O)C2CC2)CC1 [Olaparib] (partner 8 µM) :: Condition met
Nc1cccc2c1CN(C1CCC(=O)NC1=O)C2=O (configuration not stated) [Lenalidomide] + Nc1nc2[nH]cc(CCc3ccc(C(=O)N[C@@H](CCC(=O)O)C(=O)O)cc3)c2c(=O)[nH]1 [Pemetrexed] (partner 0.2 µM) :: Condition not met
Nc1cccc2c1CN(C1CCC(=O)NC1=O)C2=O (configuration not stated) [Lenalidomide] + CC(=O)Nc1cccc(-n2c(=O)n(C3CC3)c(=O)c3c(Nc4ccc(I)cc4F)n(C)c(=O)c(C)c32)c1 [Trametinib] (partner 0.02 µM) :: Condition not met

-- ask Decide: relative viability of Nc1cccc2c1CN(C1CCC(=O)NC1=O)C2=O (configuration not stated) [Lenalidomide] + COc1cc2c(Oc3ccc(NC(=O)C4(C(=O)Nc5ccc(F)cc5)CC4)cc3F)ccnc2cc1OCCCN1CCOCC1 [Foretinib] (partner 0.25 µM) strictly below 0.7?
-- reply Condition not met

-- ask Decide: relative viability of Nc1cccc2c1CN(C1CCC(=O)NC1=O)C2=O (configuration not stated) [Lenalidomide] + O=C(CCCCCCC(=O)Nc1ccccc1)NO [Vorinostat] (partner 1 µM) strictly below 0.7?
-- reply Condition not met

* * *

Tested on: IA-LM
Assay: relative viability (nuclei count vs DMSO), 5 days (fraction); higher = more cells survive
Conditions: first compound 0.02 µM
PARAMETER: relative viability
I'd appreciate a reply containing only the number, no unit.

Worked examples, 5 molecules total:
CN1CCN(CCOc2cc(OC3CCOCC3)c3c(Nc4c(Cl)ccc5c4OCO5)ncnc3c2)CC1 [Saracatinib] + CS(=O)(=O)N1CCN(Cc2cc3nc(-c4cccc5[nH]ncc45)nc(N4CCOCC4)c3s2)CC1 [Pictilisib] (partner 1 µM) :: 0.33
CN1CCN(CCOc2cc(OC3CCOCC3)c3c(Nc4c(Cl)ccc5c4OCO5)ncnc3c2)CC1 [Saracatinib] + CS(=O)(=O)CCNCc1ccc(-c2ccc3ncnc(Nc4ccc(OCc5cccc(F)c5)c(Cl)c4)c3c2)o1 [Lapatinib] (partner 2 µM) :: 0.803
CN1CCN(CCOc2cc(OC3CCOCC3)c3c(Nc4c(Cl)ccc5c4OCO5)ncnc3c2)CC1 [Saracatinib] + Cc1nc(NC(=O)N2CCC[C@H]2C(N)=O)sc1-c1ccnc(C(C)(C)C(F)(F)F)c1 [Alpelisib] (partner 2 µM) :: 0.93
CCNC(=O)c1noc(-c2cc(C(C)C)c(O)cc2O)c1-c1ccc(CN2CCOCC2)cc1 [Luminespib] + CS(=O)(=O)N1CCN(Cc2cc3nc(-c4cccc5[nH]ncc45)nc(N4CCOCC4)c3s2)CC1 [Pictilisib] (partner 1 µM) :: 0.159
CN1CCN(CCOc2cc(OC3CCOCC3)c3c(Nc4c(Cl)ccc5c4OCO5)ncnc3c2)CC1 [Saracatinib] + COc1cc2c(Oc3ccc(NC(=O)C4(C(=O)Nc5ccc(F)cc5)CC4)cc3F)ccnc2cc1OCCCN1CCOCC1 [Foretinib] (partner 0.25 µM) :: 1.13

Short answer for CCNC(=O)c1noc(-c2cc(C(C)C)c(O)cc2O)c1-c1ccc(CN2CCOCC2)cc1 [Luminespib] + C[C@]1(O)C[C@@H](c2nc(-c3ccc4ccc(-c5ccccc5)nc4c3)c3c(N)nccn32)C1 [Linsitinib] (partner 1 µM) : relative viability was 0.284
